FYI, the data here is from patent US20210309631A1.

Experiment: In vivo individual difference analysis: individual plasma concentration versus time in rats (Example 8)
Parameters: species or system SD rats
Details: male, SD, rat, plasma, oral, 1 mg/kg, intragastric 1 mg/kg, 0.5 h after administration, rat 4♂, read-out: Plasma Concentrations of Compound of Formula I
observationType: concentration at 0.5 h

lineNotation: CN(C)C(=O)N[C@H]1CC[C@H](CCN2CCN(c3cccc4ccsc34)CC2)CC1
result: 0.0633 µg/mL

====

Test: Plasma pharmacokinetics in SD rats after single intragastric administration (Example 7)
Assay type: in vivo
Settings: male, SD, rat, plasma, po, 1 mg/kg, intragastric 1 mg/kg, Mean ± SD, non-compartmental model
Protocol: The in vivo absorption process and characteristics of the free base and four salts thereof (sulfate, hydrochloride salt, phosphate, maleate) of compound (I) in rats were studied. The pharmacokinetics of a single intragastric administration of 1 mg/kg of a compound of Formula I and four salts thereof (calculated by free base concentration in salt form) were studied in SD rats. […]

compound: CN(C)C(=O)N[C@H]1CC[C@H](CCN2CCN(c3cccc4ccsc34)CC2)CC1.O=C(O)/C=C\C(=O)O [Example 5]
AUC [ng·h/mL]: 124

compound: CN(C)C(=O)N[C@H]1CC[C@H](CCN2CCN(c3cccc4ccsc34)CC2)CC1 [Example 2]
AUC [ng·h/mL]: 96.9

====

Experiment: Plasma pharmacokinetics in SD rats after single intragastric administration (Example 7)
Assay type: in vivo
Conditions: male, SD, rat, plasma, po, 1 mg/kg, intragastric 1 mg/kg, Mean ± SD, non-compartmental model, read-out: Tmax
Method: The in vivo absorption process and characteristics of the free base and four salts thereof (sulfate, hydrochloride salt, phosphate, maleate) of compound (I) in rats were studied. The pharmacokinetics of a single intragastric administration of 1 mg/kg of a compound of Formula I and four salts thereof (calculated by free base concentration in salt form) were studied in SD rats. […]
observationType: Tmax (min)

compound: CN(C)C(=O)N[C@H]1CC[C@H](CCN2CCN(c3cccc4ccsc34)CC2)CC1.O=C(O)/C=C\C(=O)O [Example 5]
observationType: Tmax
readoutNumber: 45
--
compound: CN(C)C(=O)N[C@H]1CC[C@H](CCN2CCN(c3cccc4ccsc34)CC2)CC1 [Example 2]
observationType: Tmax
readoutNumber: 37.5

====

Test: In vivo individual difference analysis: individual plasma concentration versus time in rats (Example 8)
Set-up: species or system SD rats
Details: male, SD, rat, plasma, oral, 1 mg/kg, intragastric 1 mg/kg, 6 h after administration, rat 1♂, read-out: Plasma Concentrations of Compound of Formula I

lineNotation: CN(C)C(=O)N[C@H]1CC[C@H](CCN2CCN(c3cccc4ccsc34)CC2)CC1
unitDescriptor: ng/mL
concentration at 6 h: 2.03

====

Experiment: In vivo individual difference analysis: individual plasma concentration versus time in rats (Example 8)
Parameters: species or system SD rats
Details: male, SD, rat, plasma, oral, 1 mg/kg, intragastric 1 mg/kg, 0.5 h after administration, Mean ± SD, read-out: Plasma Concentrations of Compound of Formula I

lineNotation: CN(C)C(=O)N[C@H]1CC[C@H](CCN2CCN(c3cccc4ccsc34)CC2)CC1
concentration at 0.5 h [ng/mL]: 46.4

====

Assay: In vivo individual difference analysis: individual plasma concentration versus time in rats (Example 8)
Parameters: species or system SD rats
Conditions: male, SD, rat, plasma, oral, 1 mg/kg, intragastric 1 mg/kg, 0.167 h after administration, Mean ± SD, read-out: Plasma Concentrations of Compound of Formula I
observationType: concentration at 0.167 h

lineNotation: CN(C)C(=O)N[C@H]1CC[C@H](CCN2CCN(c3cccc4ccsc34)CC2)CC1
result: 14.9 ng/mL

====

Assay: In vivo individual difference analysis: individual plasma concentration versus time in rats (Example 8)
Design: species or system SD rats
Details: male, SD, rat, plasma, oral, 1 mg/kg, intragastric 1 mg/kg, 1 h after administration, Mean ± SD, read-out: Plasma Concentrations of Compound of Formula I
observationType: concentration at 1 h

lineNotation: CN(C)C(=O)N[C@H]1CC[C@H](CCN2CCN(c3cccc4ccsc34)CC2)CC1
result: 43.7 ng/mL

====

Assay: In vivo individual difference analysis: individual plasma concentration versus time in rats (Example 8)
Design: species or system SD rats
Details: male, SD, rat, plasma, oral, 1 mg/kg, intragastric 1 mg/kg, 2 h after administration, rat 2♂, read-out: Plasma Concentrations of Compound of Formula I

compound: CN(C)C(=O)N[C@H]1CC[C@H](CCN2CCN(c3cccc4ccsc34)CC2)CC1 [Example 1]
concentration at 2 h: 19.2 ng/mL

====

Experiment: In vivo individual difference analysis: individual plasma concentration versus time in rats (Example 8)
Set-up: species or system SD rats
Conditions: male, SD, rat, plasma, oral, 1 mg/kg, intragastric 1 mg/kg, 12 h after administration, Mean ± SD, read-out: Plasma Concentrations of Compound of Formula I
Description: […]

compound: CN(C)C(=O)N[C@H]1CC[C@H](CCN2CCN(c3cccc4ccsc34)CC2)CC1 [Example 1]
concentration at 12 h / ng/mL: 0.823

====

Test: In vivo individual difference analysis: individual plasma concentration versus time in rats (Example 8)
Parameters: species or system SD rats
Details: male, SD, rat, plasma, oral, 1 mg/kg, intragastric 1 mg/kg, 0.167 h after administration, rat 4♂, read-out: Plasma Concentrations of Compound of Formula I

lineNotation: CN(C)C(=O)N[C@H]1CC[C@H](CCN2CCN(c3cccc4ccsc34)CC2)CC1
concentration at 0.167 h: 16.3 ng/mL

====

Experiment: In vivo individual difference analysis: individual plasma concentration versus time in rats (Example 8)
Design: species or system SD rats
Conditions: male, SD, rat, plasma, oral, 1 mg/kg, intragastric 1 mg/kg, 4 h after administration, Mean ± SD, read-out: Plasma Concentrations of Compound of Formula I

lineNotation: CN(C)C(=O)N[C@H]1CC[C@H](CCN2CCN(c3cccc4ccsc34)CC2)CC1
concentration at 4 h / ng/mL: 8.91

====

Test: In vivo individual difference analysis: individual plasma concentration versus time in rats (Example 8)
Design: species or system SD rats
Details: male, SD, rat, plasma, oral, 1 mg/kg, intragastric 1 mg/kg, 2 h after administration, rat 1♂, read-out: Plasma Concentrations of Compound of Formula I

molecule: CN(C)C(=O)N[C@H]1CC[C@H](CCN2CCN(c3cccc4ccsc34)CC2)CC1 [Example 1]
concentration at 2 h: 16.8 ng/mL

====

Assay: In vivo individual difference analysis: individual plasma concentration versus time in rats (Example 8)
Design: species or system SD rats
Conditions: male, SD, rat, plasma, oral, 1 mg/kg, intragastric 1 mg/kg, 0.333 h after administration, rat 4♂, read-out: Plasma Concentrations of Compound of Formula I

lineNotation: CN(C)C(=O)N[C@H]1CC[C@H](CCN2CCN(c3cccc4ccsc34)CC2)CC1
concentration at 0.333 h [ng/mL]: 57

====

Experiment: In vivo individual difference analysis: individual plasma concentration versus time in rats (Example 8)
Design: species or system SD rats
Conditions: male, SD, rat, plasma, oral, 1 mg/kg, intragastric 1 mg/kg, 2 h after administration, Mean ± SD, read-out: Plasma Concentrations of Compound of Formula I
Excerpt: […]

lineNotation: CN(C)C(=O)N[C@H]1CC[C@H](CCN2CCN(c3cccc4ccsc34)CC2)CC1
concentration at 2 h / ng/mL: 25.1

====

Experiment: In vivo individual difference analysis: individual plasma concentration versus time in rats (Example 8)
Design: species or system SD rats
Conditions: male, SD, rat, plasma, oral, 1 mg/kg, intragastric 1 mg/kg, 6 h after administration, rat 3♂, read-out: Plasma Concentrations of Compound of Formula I
observationType: concentration at 6 h (ng/mL)

lineNotation: CN(C)C(=O)N[C@H]1CC[C@H](CCN2CCN(c3cccc4ccsc34)CC2)CC1
readoutNumber: 3.06

====

Test: In vivo individual difference analysis: individual plasma concentration versus time in rats (Example 8)
Parameters: species or system SD rats
Settings: male, SD, rat, plasma, oral, 1 mg/kg, intragastric 1 mg/kg, 1 h after administration, rat 4♂, read-out: Plasma Concentrations of Compound of Formula I
observationType: concentration at 1 h (ng/mL)

molecule: CN(C)C(=O)N[C@H]1CC[C@H](CCN2CCN(c3cccc4ccsc34)CC2)CC1 [Example 1]
observationType: concentration at 1 h
readoutNumber: 63.6

====

Assay: In vivo individual difference analysis: individual plasma concentration versus time in rats (Example 8)
Set-up: species or system SD rats
Settings: male, SD, rat, plasma, oral, 1 mg/kg, intragastric 1 mg/kg, 0.167 h after administration, rat 2♂, read-out: Plasma Concentrations of Compound of Formula I

lineNotation: CN(C)C(=O)N[C@H]1CC[C@H](CCN2CCN(c3cccc4ccsc34)CC2)CC1
unitDescriptor: ng/mL
concentration at 0.167 h: 11.3

====

Test: In vivo individual difference analysis: individual plasma concentration versus time in rats (Example 8)
Parameters: species or system SD rats
Settings: male, SD, rat, plasma, oral, 1 mg/kg, intragastric 1 mg/kg, 6 h after administration, Mean ± SD, read-out: Plasma Concentrations of Compound of Formula I
observationType: concentration at 6 h (ng/mL)

compound: CN(C)C(=O)N[C@H]1CC[C@H](CCN2CCN(c3cccc4ccsc34)CC2)CC1 [Example 1]
unitDescriptor: ng/mL
readoutNumber: 3.99
